Data provenance is ChEMBL document CHEMBL1681709.

- Species: Homo sapiens
- Experiment Notes: Inhibition of human platelet cytosolic phospholipase A2alpha at 10 uM
Calls of active or inactive are those of the source. No cut-off for these calls is given here.
Experimental Readout: inhibition

Molecule	Experimental Readout	Test Result
CCCCCCCCc1ccc(OCC(Cn2ccc3cc(C(=O)O)ccc32)NC(=O)Oc2ccccc2OC)cc1 (racemic)	inhibition	inactive
CCCCCCCCc1ccc(OC/C(Cn2ccc3cc(C(=O)O)ccc32)=N\O)cc1	inhibition	32%
CCCCCCCCc1ccc(OCC(Cn2ccc3cc(C(=O)O)ccc32)OC(=O)c2ccccc2)cc1 (racemic)	inhibition	18%
CCCCCCCCc1ccc(OCC(Cn2ccc3cc(C(=O)O)ccc32)OC(C)=O)cc1 (racemic)	inhibition	inactive
CCCCCCCCc1ccc(OCC(N)Cn2ccc3cc(C(=O)O)ccc32)cc1 (racemic)	inhibition	37%

CCCCCCCCc1ccc(OCC(Cn2ccc3cc(C(=O)O)ccc32)NC(=O)Oc2ccccc2F)cc1 (racemic) has a reported inhibition of inactive

CCCCCCCCc1ccc(OCC(Cn2ccc3cc(C(=O)O)ccc32)NC(C)=O)cc1 (racemic) has a reported inhibition of inactive

CCCCCCCCc1ccc(OCC(Cn2ccc3cc(C(=O)O)ccc32)NC(=O)OC)cc1 (racemic) has a reported inhibition of 21%

###

- Organism: Homo sapiens
- Experiment Notes: Inhibition of human platelet cytosolic phospholipase A2alpha at 10 uM
Calls of active or inactive are those of the source. The rule behind the calls is not given here.
Experimental Readout: inhibition

Consider the worked cases shown below.
Molecule	inhibition
CCCCCCCCc1ccc(OCC(Cn2ccc3cc(C(=O)O)ccc32)NC(=O)Oc2ccc(Cl)cc2)cc1 (racemic)	28%
CCCCCCCCc1ccc(OCC(Cn2ccc3cc(C(=O)O)ccc32)NC(=O)c2ccccc2)cc1 (racemic)	inactive
CCCCCCCCc1ccc(OCC(Cn2ccc3cc(C(=O)O)ccc32)NC(=O)Oc2ccccc2Cl)cc1 (racemic)	inactive
CCCCCCCCc1ccc(OCC(Cn2ccc3cc(C(=O)O)ccc32)OC(=O)Nc2ccccc2)cc1 (racemic)	inactive
CCCCCCCCc1ccc(OCC(Cn2ccc3cc(C(=O)O)ccc32)NC(=O)Oc2ccc(OC)cc2)cc1 (racemic)	23%

CCCCCCCCc1ccc(OCC(Cn2ccc3cc(C(=O)O)ccc32)OS(C)(=O)=O)cc1 (racemic) has a reported inhibition of 16%

CCCCCCCCc1ccc(OC/C(Cn2ccc3cc(C(=O)O)ccc32)=N/O)cc1 has a reported inhibition of 42%

CCCCCCCCc1ccc(OCC(Cn2ccc3cc(C(=O)O)ccc32)=NOC)cc1 (mixture of isomers) has a reported inhibition of 22%

CCCCCCCCc1ccc(OCC(Cn2ccc3cc(C(=O)O)ccc32)NC(=O)Nc2ccccc2)cc1 (racemic) has a reported inhibition of inactive
